Data provenance: the supplement of paper PMC10567573

B1: FBF1 (parent)
chain: YQRPQDSEDMWGDEDFTFGAYQPT

Variants of: B1
EXPERIMENT_DESCRIPTION: protein stability index of a GFP-peptide fusion (GPS, HEK-293T) (PSI 1-6); higher = more stable;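 note: lentivirally expressed fusions sorted by FACS into six bins by GFP to DsRed ratio, PSI derived from sequencing read proportions per bin multiplied by bin number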
MEASUREMENT_CONTEXT: c terminus: a fixed tail appended
Overview of reported protein stability index across a group of variants:
QUANTITY_NAME: protein stability index

variant=F18E quantity_name="protein stability index" result_value=3.62
variant=S7A quantity_name="protein stability index" result_value=2.68
variant=Q2M quantity_name="protein stability index" result_value=3.56
variant=P23N quantity_name="protein stability index" result_value=3.1
variant=W11F quantity_name="protein stability index" result_value=3.83
